Values from ChEMBL document CHEMBL4390662

tested on: NFS-60; experiment: Cytotoxicity against mouse NFS60 cells assessed as cell growth inhibition incubated for 72 hrs by MTT assay; assay type: functional, cell-based; conditions: NFS-60, 72 h
valueType: IC50 (nM)
Write it as a number; the unit nM goes unstated.

Completed entries (count: 6):
Entry Cc1ccc(C(=O)OC2(C(=O)Nc3ccc([N+](=O)[O-])cc3)CCCCC2)cc1 , IC50 reported as 45.4

Documented IC50 of O=C(Cc1ccccc1)OC1(C(=O)Nc2ccc([N+](=O)[O-])cc2)CCCCC1 : 8.1

Kindly note the recorded IC50 for O=C(/C=C/c1ccccc1)OC1(C(=O)Nc2ccc([N+](=O)[O-])cc2)CCCCC1 , which is 50.5

Sure, the documented IC50 for O=C(Nc1ccc([N+](=O)[O-])cc1)C1(O)CCCCC1 is 716

For this compound ( O=C(OC1(C(=O)Nc2ccc([N+](=O)[O-])cc2)CCCCC1)c1ccc(C(F)(F)F)cc1 ), measured IC50 is 26

Record COC1(Nc2ccc([N+](=O)[O-])cc2)C(=O)c2ccccc2C1=O , field IC50: 32.8

***
Sure, the documented IC50 for CC(=O)OC1(C(=O)Nc2ccc([N+](=O)[O-])cc2)CCCCC1 is 517

CCC(=O)OC1(C(=O)Nc2ccc([N+](=O)[O-])cc2)CCCCC1 yielded IC50 of 6.4

Briefly, IC50 measured for CC(=O)Oc1ccccc1C(=O)OC1(C(=O)Nc2ccc([N+](=O)[O-])cc2)CCCCC1 : 11.3

The compound identified as O=COC1(C(=O)Nc2ccc([N+](=O)[O-])cc2)CCCCC1 registered its IC50 at 33.8

---

test system: NFS-60; experiment: Cytotoxicity against mouse NFS60 cells assessed as cell growth inhibition incubated for 72 hrs by MTT assay; format: functional, cell-based; settings: NFS-60, 72 h
valueType: log10 IC50 (log10 of the value in nM)
Heads up: the numbers are on a log10 scale; they represent IC50 in nM.

Consider the worked cases shown below.
Memo: O=C(OC1(C(=O)Nc2ccc([N+](=O)[O-])cc2)CCCCC1)c1ccc([N+](=O)[O-])cc1 , reported log10 IC50: 0.89

// log10 IC50 lookup, molecule = O=C(OC1(C(=O)Nc2ccc([N+](=O)[O-])cc2)CCCCC1)c1ccccc1[N+](=O)[O-] , result: 1.27

The measured log10 IC50 associated with O=C(OC1(C(=O)Nc2ccc([N+](=O)[O-])cc2)CCCCC1)C(O)c1ccccc1 (centres undefined) reads 0.89

Lab book: log10 IC50 of O=C(OC1(C(=O)Nc2ccc([N+](=O)[O-])cc2)CCCCC1)c1ccc(Cl)cc1 noted as 1.01

# molecule CCOC1(Nc2ccc([N+](=O)[O-])cc2)C(=O)c2ccccc2C1=O ; its log10 IC50 = 1.44

// log10 IC50 lookup, molecule = O=C(OC1(C(=O)Nc2ccc([N+](=O)[O-])cc2)CCCCC1)c1ccccc1 , result: 2.88

Further cases:
Entry under test: O=C(OC1(C(=O)Nc2ccc([N+](=O)[O-])cc2)CCCCC1)c1ccc(Br)cc1 . Its log10 IC50 was 2.37

Per the records, this molecule ( O=C(OC1(C(=O)Nc2ccc([N+](=O)[O-])cc2)C(=O)c2ccccc2C1=O)c1ccc(C(F)(F)F)cc1 ) has log10 IC50 equal to 2.68

Entry COc1ccc(C(=O)OC2(C(=O)Nc3ccc([N+](=O)[O-])cc3)CCCCC2)cc1 , log10 IC50 reported as 1.59

---

experiment: Selectivity index, ratio of IC50 for human WI38 cells to IC50 for mouse NFS60 cells
valueType: Ratio IC50
Lab note: jot the number down without any unit.

response.value for O=C(/C=C/c1ccccc1)OC1(C(=O)Nc2ccc([N+](=O)[O-])cc2)CCCCC1 (field: Ratio IC50) = 0.811

For CCOC(=O)c1ccccc1C(=O)OC1(C(=O)Nc2ccc([N+](=O)[O-])cc2)CCCCC1 the molecule record lists Ratio IC50 as 0.79

Per the records, this molecule ( CC1(C)CC(=O)C=C(Nc2ccc([N+](=O)[O-])cc2)C1 ) has Ratio IC50 equal to 0.494

Kindly review the next molecule as well.
The measured Ratio IC50 associated with CCOC1(Nc2ccc([N+](=O)[O-])cc2)C(=O)c2ccccc2C1=O reads 1.69

---

Activity values for the compounds below.
system: MCF7; test: Induction of apoptosis in human MCF7 cells assessed as viable cells level at IC50 incubated for 72 hrs by annexin V/propidium iodide staining based flow cytometry (reference value: 99.5%); type: functional
Report the figure in % without appending any unit label.

Field: example entries. Status: answers known.
Entry under test: O=C(OC1(C(=O)Nc2ccc([N+](=O)[O-])cc2)CCCCC1)c1ccc([N+](=O)[O-])cc1 . Its Activity was 54.7

Briefly, Activity measured for O=C(Cc1ccccc1)OC1(C(=O)Nc2ccc([N+](=O)[O-])cc2)CCCCC1 : 59.23

The recorded Activity for entry COc1cccc2c1C(=O)c1c(O)c3c(c(O)c1C2=O)C[C@@](O)(C(=O)CO)C[C@@H]3O[C@H]1C[C@H](N)[C@H](O)[C@H](C)O1 equals 60.42

Kindly consider the entry below.
get_value(item= O=C(OC1(C(=O)Nc2ccc([N+](=O)[O-])cc2)CCCCC1)C(O)c1ccccc1 (centres undefined) , readout=Activity) returns 43.92

---

Below is a list of entries, each paired with its recorded Activity value.
tested on: HepG2; test: Induction of apoptosis in human HepG2 cells assessed as necrotic cells level at IC50 incubated for 72 hrs by annexin V/propidium iodide staining based flow cytometry (reference value: 0.87%); type: functional
// note: answer is a bare numeric in %

Study these solved cases before continuing.
Record COc1cccc2c1C(=O)c1c(O)c3c(c(O)c1C2=O)C[C@@](O)(C(=O)CO)C[C@@H]3O[C@H]1C[C@H](N)[C@H](O)[C@H](C)O1 . Reported Activity: 11.94

Short answer for O=C(OC1(C(=O)Nc2ccc([N+](=O)[O-])cc2)CCCCC1)C(O)c1ccccc1 (centres undefined) : Activity was 7.11

For record O=C(OC1(C(=O)Nc2ccc([N+](=O)[O-])cc2)CCCCC1)c1ccc([N+](=O)[O-])cc1 the listed Activity is 19.9

# input for lookup
Activity measured on O=C(Cc1ccccc1)OC1(C(=O)Nc2ccc([N+](=O)[O-])cc2)CCCCC1 = 7.13

---

tested on: NFS-60; test: Induction of apoptosis in mouse NFS60 cells assessed as early apoptotic cells at IC50 incubated for 72 hrs by annexin V/propidium iodide staining based flow cytometry (reference value: 0.02 +/- 0.01%); format: functional
valueType: Activity (%)
Answer with a number only, understood to be in %.

Measured Activity, O=C(OC1(C(=O)Nc2ccc([N+](=O)[O-])cc2)CCCCC1)c1ccc([N+](=O)[O-])cc1 : 22.83

New cases:
Value of Activity reported for the compound O=C(Cc1ccccc1)OC1(C(=O)Nc2ccc([N+](=O)[O-])cc2)CCCCC1 is 13.64

Please fill in: Activity reported for COc1cccc2c1C(=O)c1c(O)c3c(c(O)c1C2=O)C[C@@](O)(C(=O)CO)C[C@@H]3O[C@H]1C[C@H](N)[C@H](O)[C@H](C)O1 [DOXORUBICIN] = 11.379

Entry O=C(OC1(C(=O)Nc2ccc([N+](=O)[O-])cc2)CCCCC1)C(O)c1ccccc1 (centres undefined) ; Activity = 21.04

---

test system: NFS-60; assay: Induction of apoptosis in mouse NFS60 cells assessed as total apoptotic cells at IC50 incubated for 72 hrs by annexin V/propidium iodide staining based flow cytometry (reference value: 0.495 +/- 0.01%); type: functional
valueType: Activity (%)
Form entry: value (%) — number only.

Activity for COc1cccc2c1C(=O)c1c(O)c3c(c(O)c1C2=O)C[C@@](O)(C(=O)CO)C[C@@H]3O[C@H]1C[C@H](N)[C@H](O)[C@H](C)O1 [DOXORUBICIN] is 34.595

Further cases:
For record O=C(Cc1ccccc1)OC1(C(=O)Nc2ccc([N+](=O)[O-])cc2)CCCCC1 the listed Activity is 34.129

GET /value?item= O=C(OC1(C(=O)Nc2ccc([N+](=O)[O-])cc2)CCCCC1)c1ccc([N+](=O)[O-])cc1 &field=Activity returns 41.795

// Activity lookup, compound = O=C(OC1(C(=O)Nc2ccc([N+](=O)[O-])cc2)CCCCC1)C(O)c1ccccc1 (centres undefined) , result: 44.185

---

test system: Enterococcus faecalis; test: Antimicrobial activity against Enterococcus faecalis ATCC 29212 incubated for 24 hrs by agar well diffusion assay; type: functional
The source made the active and inactive calls. The rule behind the calls is not given here.
valueType: diameter of the inhibition zone (DIZ)

For reference, reported diameter of the inhibition zone (DIZ) for Cc1ccc(C(=O)OC2(C(=O)Nc3ccc([N+](=O)[O-])cc3)CCCCC2)cc1 stands at inactive

// CC(=O)Oc1ccccc1C(=O)OC1(C(=O)Nc2ccc([N+](=O)[O-])cc2)CCCCC1 : diameter of the inhibition zone (DIZ) value = inactive

// diameter of the inhibition zone (DIZ) lookup, molecule = COc1ccc(C(=O)OC2(C(=O)Nc3ccc([N+](=O)[O-])cc3)CCCCC2)cc1 , result: inactive

Memo: O=C(O)c1cn(C2CC2)c2cc(N3CCNCC3)c(F)cc2c1=O , reported diameter of the inhibition zone (DIZ): 24 mm

For record CCC(=O)OC1(C(=O)Nc2ccc([N+](=O)[O-])cc2)CCCCC1 the listed diameter of the inhibition zone (DIZ) is inactive

# next molecule below
// diameter of the inhibition zone (DIZ) value for O=COC1(C(=O)Nc2ccc([N+](=O)[O-])cc2)CCCCC1 : 12 mm
